Known 100 nM mfIL-36R-MMH Bound (RU) of a selection of binders
TEST_TARGET: Macaca fascicularis IL-36R extracellular domain expressed with a C-terminal myc-myc-hexahistidine tag (Macaca fascicularis)
RUN_DESCRIPTION: SPR Biacore T200, mAb captured by anti-hFc, 37C, PBS-T pH 7.4

Observe how each entry below is paired with its result.
>  <BINDER>
H4H14700P2 (antibody, human IgG4 S228P, kappa, V domains shown) VH: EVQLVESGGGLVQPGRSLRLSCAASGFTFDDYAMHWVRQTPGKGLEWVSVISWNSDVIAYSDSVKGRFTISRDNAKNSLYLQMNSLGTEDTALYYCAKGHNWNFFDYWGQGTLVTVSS VL: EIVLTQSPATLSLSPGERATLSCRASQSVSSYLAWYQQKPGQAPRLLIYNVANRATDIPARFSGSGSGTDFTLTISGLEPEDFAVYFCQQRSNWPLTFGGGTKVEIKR

>  <RESULT_VALUE>
108 RU

$$$$
>  <BINDER>
H4H14708P2 (antibody, human IgG4 S228P, kappa, V domains shown) VH: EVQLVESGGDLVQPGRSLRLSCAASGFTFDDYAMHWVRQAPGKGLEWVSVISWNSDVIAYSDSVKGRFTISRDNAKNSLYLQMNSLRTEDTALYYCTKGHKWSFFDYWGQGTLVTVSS VL: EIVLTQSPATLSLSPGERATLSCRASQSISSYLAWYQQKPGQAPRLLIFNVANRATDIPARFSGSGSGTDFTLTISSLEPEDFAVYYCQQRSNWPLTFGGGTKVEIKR

>  <RESULT_VALUE>
66 RU

$$$$
>  <BINDER>
H4H14757P (antibody, human IgG4 S228P, kappa, V domains shown) VH: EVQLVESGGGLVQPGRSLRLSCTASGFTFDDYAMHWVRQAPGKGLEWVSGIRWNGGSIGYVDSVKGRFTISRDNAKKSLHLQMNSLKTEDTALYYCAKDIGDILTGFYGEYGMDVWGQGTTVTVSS VL: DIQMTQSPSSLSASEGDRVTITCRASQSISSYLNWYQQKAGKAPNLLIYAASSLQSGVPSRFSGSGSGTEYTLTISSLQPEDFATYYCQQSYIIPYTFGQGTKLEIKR

>  <RESULT_VALUE>
0 RU

$$$$

# evaluate next
Tell us which 100 nM mfIL-36R-MMH Bound (RU) value is on record for H4H14728P (antibody, human IgG4 S228P, kappa, V domains shown) VH: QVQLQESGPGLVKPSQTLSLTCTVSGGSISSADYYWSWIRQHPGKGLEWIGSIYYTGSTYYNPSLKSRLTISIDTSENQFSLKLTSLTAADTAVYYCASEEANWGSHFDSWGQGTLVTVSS VL: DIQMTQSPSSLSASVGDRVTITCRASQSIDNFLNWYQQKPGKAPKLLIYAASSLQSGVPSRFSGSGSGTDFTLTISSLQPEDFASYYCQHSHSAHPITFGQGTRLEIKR 98 RU
